- EXPERIMENTAL_TARGET: CYP17A1 (Homo sapiens)
- TEST_PROTOCOL: Inhibition of CYP17A1-mediated progesterone 17α-hydroxylation
- Format: biochemical
- RECORDED_CONDITIONS: relative to abiraterone
// values below are reported increase in IC50 for CYP17A1
PARAMETER_MEASURED: increase in IC50 for CYP17A1 (fold)

>>> print(df.to_string())
                                   molecule            parameter_measured  measured_number
0  C[C@]12CC[C@H](O)CC1=C(C(N)=O)C[C@@H]1[C@@H]2CC[C@]2(C)C(c3cccnc3)=CC[C@@H]12  increase in IC50 for CYP17A1              4.6
1  C[C@]12CC[C@H](O)CC1=C(C#N)C[C@@H]1[C@@H]2CC[C@]2(C)C(c3cccnc3)=CC[C@@H]12  increase in IC50 for CYP17A1                3
